B1: library; a variant is named by its letters at N, in order (parent)
chain: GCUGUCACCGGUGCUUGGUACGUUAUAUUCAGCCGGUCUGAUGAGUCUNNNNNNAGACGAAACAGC

# Variants of: B1
# procedure details: normalized RNA/DNA level without ligand (relative to sTRSVctl = 100) (log10 (% of sTRSVctl)); HEK293T overexpressing SLC46A1; higher = less ribozyme self-cleavage, higher mRNA level
# condition set: without (6R,S)-folinic acid; ligand present: no
Lab note: anything with normalized RNA/DNA level without ligand (log10) at or over 2 counts as 1.0; the rest go in 0.0.

Observe how each entry below is paired with its result.
{"columns": ["polymer sequence", "assigned label"],
 "data": [
  ["GCUGUCACCGGUGCUUGGUACGUUAUAUUCAGCCGGUCUGAUGAGUCUUUCCUCAGACGAAACAGC [UUCCUC]", 1.0],
  ["GCUGUCACCGGUGCUUGGUACGUUAUAUUCAGCCGGUCUGAUGAGUCUAAUGGAAGACGAAACAGC [AAUGGA]", 0.0]
]}

Q: Test whether the variant GCUGUCACCGGUGCUUGGUACGUUAUAUUCAGCCGGUCUGAUGAGUCUUGGAUAAGACGAAACAGC [UGGAUA] records normalized RNA/DNA level without ligand (log10) of 2 or higher.
A: 0.0

Q: Test whether the variant GCUGUCACCGGUGCUUGGUACGUUAUAUUCAGCCGGUCUGAUGAGUCUAUGGAUAGACGAAACAGC [AUGGAU] records normalized RNA/DNA level without ligand (log10) of 2 or higher.
A: 0.0
